The reported measurements were obtained from patent US20210380703A1.

molecular target: T1, human ACVR2A (human, UniProt P27037 20-135, limits assumed); assay: ELISA; note: test concentration or dose not given here
T1 construct: also called activin receptor, type II A
T1 sequence (P27037 20-135 limits assumed): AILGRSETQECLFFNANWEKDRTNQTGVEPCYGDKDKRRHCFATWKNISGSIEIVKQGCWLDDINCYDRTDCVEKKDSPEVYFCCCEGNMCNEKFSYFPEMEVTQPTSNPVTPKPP
Observation type: optical density (OD)
Dear colleague, please return just the value in OD, with no unit written.

| Binder | Observation type | Number |
| --- | --- | --- |
| 372_A09 (antibody, V domains shown, Group I) VH: EVQLLESGGGLVQPGGSLRLSCAASGFTFDSYGMNWVRQAPGKGLEWVSGINYNGGYTSYADSVKGRFTISRDNSKNTLYLQMNSLRAEDTAVYYCARAANWHDTALDYWGQGTLVTVSS VL: DIQMTQSPSSLSASVGDRVTITCRASQSILSYLNWYQQKPGKAPKLVIYAATSRASGVPSRFSGSGSGTDFTLTISSLQPEDFATYYCQQSYNSPLTFGGGTKVEIK | optical density | 2.43 |
| 373_E11 (antibody, V domains shown, Group I) VH: EVQLLESGGGLVQPGGSLRLSCAASGFTFDSYGMHWVRQAPGKGLEWVASINYNGGYTSYADSVKGRFTISRDNSKNTLYLQMNSLRAEDTAVYYCARAANWHDTALDYWGQGTLVTVSS VL: DIQMTQSPSSLSASVGDRVTITCRASQSIVSYLNWYQQKPGKAPKLVIYAATSRASGVPSRFSGSGSGTDFTLTISSLQPEDFATYYCQQSYDSPLTFGGGTKVEIK | optical density | 3.3 |

Now turn to the next binder.
## Input Name the reported optical density value associated with the binder 365_G07 (antibody, V domains shown, Group I) VH: EVQLLESGGGLVQPGGSLRLSCAASGFTFDSYGMHWVRQAPGKGLEWVSSINYNGGYTSYADSVKGRFTISRDNSKNTLYLQMNSLRAEDTAVYYCARAANWHDTALDYWGQGTLVTVSS VL: DIQMTQSPSSLSASVGDRVTITCRASQSIVSYLNWYQQKPGKAPKLLIYAATSRASGVPSRFSGSGSGTDFTLTISSLQPEDFATYYCQQSYDNPLTFGGGTKVEIK
## Output 2.42
